B1: STK38L (parent)
chain: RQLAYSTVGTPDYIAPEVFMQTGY

# Variants of: B1
# PROTOCOL DETAILS: protein stability index of a GFP-peptide fusion (GPS, HEK-293T) (PSI 1-6); higher = more stable;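 also: lentivirally expressed fusions sorted by FACS into six bins by GFP to DsRed ratio, PSI derived from sequencing read proportions per bin multiplied by bin number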
# CONDITION CONTEXT: c terminus: a fixed tail appended

MUTATION DESCRIPTOR | protein stability index
G23D | 2.83
G23T | 2.06
Q21L | 1.7
P16E | 2.96
E17L | 1.76
I14H | 2.57
Y13I | 3.12
Q2S | 2.4
G9T | 2.7
T7K | 2.41
G9N | 2.62
A4I | 1.77
V18G | 3.16
E17Q | 2.22
M20I | 2.14
D12A | 2.21
I14D | 2.81
T10L | 1.96
F19Y | 2.61
V8Q | 2.63
E17V | 1.83
Y5L | 2.84
T22A | 2.13
T7Y | 2.07
T22Q | 3.04
T22D | 3.02
L3K | 2.68
G9R | 2.65
S6T | 2.21
E17D | 2.79
T7N | 2.51
P11I | 2
T7Q | 3.12
S6A | 1.95
R1I | 1.15
Q2D | 2.69
F19N | 3.22
S6G | 2.32
L3Y | 2.41
I14T | 2.69
G23V | 1.81
T7D | 2.26
G23L | 2.28
Q21D | 3.06
V18S | 3.06
P16C | 2.29
